# Test system: CCRF-CEM leukemia
# METHOD_NOTES: NCI tumour cell line growth inhibition, 48 h
MEASURED_ENDPOINT: GI50

Q: Entry `O=C1C=CC(=Nc2cc(Br)c(O)c(Br)c2)C=C1` , system CCRF-CEM leukemia: what GI50 was measured?
Ans: 3.53 µM

Q: Entry `C#Cc1c(/C=C/C(=O)OCC)ccc2ccccc12` , system CCRF-CEM leukemia: what GI50 was measured?
Ans: 14.6 µM

Q: Entry `O=c1cc(-c2cccc3c2Sc2ccccc2S3)oc(N2CCOCC2)c1` , system CCRF-CEM leukemia: what GI50 was measured?
Ans: 21.1 µM

Q: Entry `COc1cc(C(=O)N2CCN(c3ncnc4ccccc34)CC2)c(N)cc1OCc1ccccc1` , system CCRF-CEM leukemia: what GI50 was measured?
Ans: 23.8 µM

Q: Entry `CC(C)=CCC[C@](C)(O)[C@H]1CC[C@]2(C)[C@@H]1CC[C@@H]1[C@@]3(C)CC/C(=N/O)C(C)(C)[C@@H]3CC[C@]12C` , system CCRF-CEM leukemia: what GI50 was measured?
Ans: 14.2 µM

Q: Entry CCN(CC)CC(O)CNc1c2ccc([N+](=O)[O-])cc2nc2cc(OC)c(OC)cc12 (stereo not given) , system CCRF-CEM leukemia: what GI50 was measured?
Ans: 0.517 µM

Q: Entry `COc1cc(NCCCN=C(N)NC(N)=NC(C)C)c2ncccc2c1` , system CCRF-CEM leukemia: what GI50 was measured?
Ans: 7.61 µM

Q: Entry `CC(C)=CCC/C(C)=C/CC/C(C)=C/CSc1ccccc1C(=O)O` , system CCRF-CEM leukemia: what GI50 was measured?
Ans: 32.3 µM

Q: Entry `CS(=O)(=O)CCc1cccc(C(=O)c2cnn(-c3ccc(F)cc3)c2N)c1` , system CCRF-CEM leukemia: what GI50 was measured?
Ans: > 25 µM

Q: Entry O=C(c1ccccc1)C1OC1c1ccc([N+](=O)[O-])cc1 (stereo not given) , system CCRF-CEM leukemia: what GI50 was measured?
Ans: 2.89 µM

----------
# Tested on: SN12C renal
# METHOD_NOTES: NCI tumour cell line growth inhibition, 48 h
Please respond with reported TGI for every item in the list.

Q: Field request: TGI | item: `COc1ccc(-c2cc(=O)c3cc(OC)ccc3[nH]2)cc1`
Ans: > 100 µM

Q: Field request: TGI | item: `CN(C)CCn1c(=O)c2ccc(NCCN3CCNCC3)c3c(=O)c4ccccc4n(c1=O)c23`
Ans: 14.6 µM

Q: Field request: TGI | item: O=C1CSC(c2ccccc2[N+](=O)[O-])N1c1ccc(-c2ccc(-n3c(-c4ccccc4)nc4ccccc4c3=O)cc2)cc1 (stereo not given)
Ans: > 100 µM

Q: Field request: TGI | item: C[As](C)SCC(COC(=O)C(Cl)c1ccccc1)OC(=O)C(Cl)c1ccccc1 (stereo not given)
Ans: 10.9 µM

Q: Field request: TGI | item: COC1CN(C)C(=Nc2cccc3ccccc23)S1 (stereo not given)
Ans: > 10 µM

Q: Field request: TGI | item: `NCCOCCOCCNc1nc(-c2ccccc2)nc(N2CCN(c3ccccn3)CC2)n1`
Ans: 32.8 µM

Q: Field request: TGI | item: `O=C(Cc1ccc(F)c(F)c1)Nc1cc(C2(C(F)(F)F)CC2)nn1Cc1ccccc1`
Ans: > 15 µM

Q: Field request: TGI | item: Cn1c(=O)c2c(nc3n2CCCC(=O)N3CC(O)CCl)n(C)c1=O (stereo not given)
Ans: > 100 µM

Q: Field request: TGI | item: `O=c1[nH]c(=S)[nH]c2c1CN(CCCN1CCOCC1)CN2`
Ans: > 100 µM

Q: Field request: TGI | item: C/C(CC(O)(/C=N/O)c1ccccc1)=N/O (stereo not given)
Ans: > 100 µM
